Every entry's value here was drawn from ChEMBL document CHEMBL1144325.

Target Entity: UniProtKB Q9WTR4
Sequence (Q9WTR4 whole entry): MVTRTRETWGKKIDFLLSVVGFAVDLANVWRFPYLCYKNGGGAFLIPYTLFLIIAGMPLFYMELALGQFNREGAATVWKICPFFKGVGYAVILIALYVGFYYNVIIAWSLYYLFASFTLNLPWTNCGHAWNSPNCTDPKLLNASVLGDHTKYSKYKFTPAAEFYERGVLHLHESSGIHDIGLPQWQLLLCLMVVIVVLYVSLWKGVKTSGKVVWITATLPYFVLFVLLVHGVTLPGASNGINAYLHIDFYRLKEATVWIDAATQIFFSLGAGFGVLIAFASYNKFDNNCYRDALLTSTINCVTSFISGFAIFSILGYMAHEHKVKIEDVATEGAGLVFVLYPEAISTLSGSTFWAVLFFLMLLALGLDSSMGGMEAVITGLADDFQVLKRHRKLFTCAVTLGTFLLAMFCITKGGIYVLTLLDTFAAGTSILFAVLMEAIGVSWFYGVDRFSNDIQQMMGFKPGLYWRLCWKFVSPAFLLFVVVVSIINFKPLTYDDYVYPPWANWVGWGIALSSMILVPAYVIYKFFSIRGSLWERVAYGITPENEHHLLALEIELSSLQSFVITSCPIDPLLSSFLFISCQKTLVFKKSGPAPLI
Property Label: log10 of Ki (log10 of the value in nM)
Scale: log10; quantity: Ki; unit before log: nM

Consider the reported log10 of Ki for these molecules:
Prompt line: # query: log10 of Ki | item COC(=O)C1C(c2ccc(-c3ccc(Cl)s3)cc2)CC2CCC1N2C (stereo not given) | system: UniProtKB Q9WTR4
Response line: 2.49

Prompt line: # query: log10 of Ki | item COC(=O)C1C(c2ccc(-c3ccsc3)cc2)CC2CCC1N2C (stereo not given) | system: UniProtKB Q9WTR4
Response line: 2.28

Prompt line: # query: log10 of Ki | item COC(=O)C1C(c2ccc(-c3ccc(I)s3)cc2)CC2CCC1N2C (stereo not given) | system: UniProtKB Q9WTR4
Response line: 3.06

Prompt line: # query: log10 of Ki | item COC(=O)C1C2CCC(CC1c1ccc(-c3ccsc3)cc1)N2 (stereo not given) | system: UniProtKB Q9WTR4
Response line: 1.59

Next:
Prompt line: # query: log10 of Ki | item COC(=O)C1C(c2ccc(-c3cccs3)cc2)CC2CCC1N2C (stereo not given) | system: UniProtKB Q9WTR4
Response line: 2.20

Prompt line: # query: log10 of Ki | item COC(=O)C1C2CCC(CC1c1ccc(-c3cccs3)cc1)N2 (stereo not given) | system: UniProtKB Q9WTR4
Response line: 1.88

Prompt line: # query: log10 of Ki | item COC(=O)C1C(c2ccc(-c3ccc(Br)s3)cc2)CC2CCC1N2C (stereo not given) | system: UniProtKB Q9WTR4
Response line: 2.51

* * *

Target Entity: Monoamine transporters; Norepinephrine & serotonin (Rattus norvegicus) (UniProt P31652+Q9WTR4)
Protocol Description: Selectivity for inhibition of serotonin and norepinephrine transporters
Format: protein assay
I'd appreciate it if you marked entries T when Ratio is lower than 500 and F when it is not.

Prompt line: Hi there! Is Ratio for COC(=O)C1C(c2ccc(-c3ccc(Br)s3)cc2)CC2CCC1N2C (stereo unspecified) below 500, do you know?
Response line: F

Prompt line: Hi there! Is Ratio for COC(=O)C1C(c2ccc(-c3cscc3Br)cc2)CC2CCC1N2C (stereo unspecified) below 500, do you know?
Response line: F

Prompt line: Hi there! Is Ratio for COC(=O)C1C(c2ccc(-c3ccsc3)cc2)CC2CCC1N2C (stereo unspecified) below 500, do you know?
Response line: F

Prompt line: Hi there! Is Ratio for COC(=O)C1C2CCC(CC1c1ccc(-c3ccsc3)cc1)N2 (stereo unspecified) below 500, do you know?
Response line: T

Prompt line: Hi there! Is Ratio for COC(=O)C1C(c2ccc(-c3cccs3)cc2)CC2CCC1N2C (stereo unspecified) below 500, do you know?
Response line: F

Next:
Prompt line: Hi there! Is Ratio for COC(=O)C1C(c2ccc(I)cc2)CC2CCC1N2C (stereo unspecified) below 500, do you know?
Response line: T

Prompt line: Hi there! Is Ratio for COC(=O)C1C2CCC(CC1c1ccc(-c3cccs3)cc1)N2 (stereo unspecified) below 500, do you know?
Response line: F

Prompt line: Hi there! Is Ratio for COC(=O)C1C(c2ccc(-c3ccc(I)s3)cc2)CC2CCC1N2C (stereo unspecified) below 500, do you know?
Response line: T

* * *

Target Entity: Monoamine transporters; serotonin & dopamine (Rattus norvegicus) (UniProt P31652+P23977)
Sequence (P23977 whole entry, looked up): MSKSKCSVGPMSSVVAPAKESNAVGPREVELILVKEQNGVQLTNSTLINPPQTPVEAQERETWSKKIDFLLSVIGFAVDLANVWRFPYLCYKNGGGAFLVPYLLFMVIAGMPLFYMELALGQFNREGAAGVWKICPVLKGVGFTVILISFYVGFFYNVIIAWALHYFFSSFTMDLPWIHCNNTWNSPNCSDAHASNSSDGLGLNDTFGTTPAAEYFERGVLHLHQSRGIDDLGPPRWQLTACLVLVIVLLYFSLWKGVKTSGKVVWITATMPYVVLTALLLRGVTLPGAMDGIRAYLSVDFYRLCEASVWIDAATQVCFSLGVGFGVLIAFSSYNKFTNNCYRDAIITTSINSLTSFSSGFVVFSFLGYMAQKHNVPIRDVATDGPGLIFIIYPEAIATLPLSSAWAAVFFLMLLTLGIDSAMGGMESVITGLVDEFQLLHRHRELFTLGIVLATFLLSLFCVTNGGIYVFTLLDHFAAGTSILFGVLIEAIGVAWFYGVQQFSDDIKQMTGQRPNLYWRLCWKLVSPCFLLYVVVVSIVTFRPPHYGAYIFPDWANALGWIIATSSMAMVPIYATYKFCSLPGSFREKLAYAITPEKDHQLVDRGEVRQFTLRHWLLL
Sequence (P31652 whole entry, looked up): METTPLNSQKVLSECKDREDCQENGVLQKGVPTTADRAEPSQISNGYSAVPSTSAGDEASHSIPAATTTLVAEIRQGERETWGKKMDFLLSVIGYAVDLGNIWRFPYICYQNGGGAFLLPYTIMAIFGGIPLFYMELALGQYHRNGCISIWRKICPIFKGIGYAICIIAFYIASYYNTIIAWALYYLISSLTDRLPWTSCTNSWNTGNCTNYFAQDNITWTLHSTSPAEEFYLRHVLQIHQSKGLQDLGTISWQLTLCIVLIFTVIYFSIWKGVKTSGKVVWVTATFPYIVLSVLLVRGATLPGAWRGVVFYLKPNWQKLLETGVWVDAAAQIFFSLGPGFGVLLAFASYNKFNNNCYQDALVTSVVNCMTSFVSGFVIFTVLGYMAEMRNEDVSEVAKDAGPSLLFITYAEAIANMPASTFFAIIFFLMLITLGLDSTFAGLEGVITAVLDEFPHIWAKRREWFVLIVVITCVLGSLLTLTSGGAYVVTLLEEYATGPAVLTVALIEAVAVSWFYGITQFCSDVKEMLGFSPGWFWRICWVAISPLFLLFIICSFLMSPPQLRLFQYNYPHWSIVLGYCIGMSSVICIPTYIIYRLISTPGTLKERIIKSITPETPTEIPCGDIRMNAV
Protocol Description: Selectivity for inhibition of serotonin and dopamine transporters
Format: protein assay
Property Label: Ratio
Just the number.

Prompt line: # lookup: Ratio of COC(=O)C1C(c2ccc(-c3ccsc3)cc2)CC2CCC1N2C (stereo not given)
Response line: 710

Prompt line: # lookup: Ratio of COC(=O)C1C(c2ccc(-c3ccc(Cl)s3)cc2)CC2CCC1N2C (stereo not given)
Response line: 6.9

Prompt line: # lookup: Ratio of COC(=O)C1C(c2ccc(-c3cscc3Br)cc2)CC2CCC1N2C (stereo not given)
Response line: 46

Next up:
Prompt line: # lookup: Ratio of COC(=O)C1C(c2ccc(-c3cccs3)cc2)CC2CCC1N2C (stereo not given)
Response line: 346
